system tested: human IgEλ (U266 derived) (human, UniProt P01854 1-546)
Sequence (P01854 whole entry): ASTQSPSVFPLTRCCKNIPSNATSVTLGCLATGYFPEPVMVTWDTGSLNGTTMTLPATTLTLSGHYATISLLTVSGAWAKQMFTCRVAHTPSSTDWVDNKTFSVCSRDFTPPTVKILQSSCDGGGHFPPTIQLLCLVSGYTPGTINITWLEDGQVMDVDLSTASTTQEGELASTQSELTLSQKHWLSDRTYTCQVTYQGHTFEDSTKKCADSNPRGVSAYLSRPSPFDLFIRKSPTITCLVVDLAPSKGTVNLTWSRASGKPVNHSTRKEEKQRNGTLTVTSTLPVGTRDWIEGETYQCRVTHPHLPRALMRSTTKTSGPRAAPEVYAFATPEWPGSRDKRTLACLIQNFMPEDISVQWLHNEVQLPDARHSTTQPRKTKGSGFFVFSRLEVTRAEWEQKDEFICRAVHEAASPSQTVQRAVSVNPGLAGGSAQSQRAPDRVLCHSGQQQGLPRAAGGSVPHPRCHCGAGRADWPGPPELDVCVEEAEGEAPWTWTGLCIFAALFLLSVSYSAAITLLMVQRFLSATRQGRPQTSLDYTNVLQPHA
assay remarks: HTRF receptor-ligand competition, scFv titrated; Eu-cryptate human IgE (U266) binding to human FcεRI-Fc; geomean
measured property: pIC50
# pIC50 = -log10(concentration in molar units)

Exercise: Can you look up the measured pIC50 of Antibody 11 (scFv) (scFv, V domains shown, purified scFv) VH: EVQLLESGGGLVQPGGSLRLSCAASGFTFSSYAMSWVRQAPGKGLEWVSAISGSGGRTYYADSVKGRFTISRDNSKNTLYLQMNSPRAEDTAVYYCARHIAVAGTRGFDYWGRGTLVAVSS VL: SYVLTQPPSVSVSPGQTASIACSGDKLGDTYASWYRQRSGQSPVLVIYQDDKRPSGIPERFSGSNSGNTATLTISGTHTMDEADYYCLAWDTRTSGAVFGGGTKLTVL for me?
Key: 8.15
